Assay: Intrinsic clearance in rat microsomes at 0.5 uM
Type: ADME, Microsome
Reported values of microsomal CLint at 0.5 µM for individual entries
Report the figure in µL/min/mg without appending any unit label.

// worked examples, microsomal CLint at 0.5 µM included
* COc1ccc2ncc(-c3cccc(NC4CCNCC4)n3)n2c1 | 5.3
* Clc1ccc2ncc(-c3cccc(NC4CCNC4)n3)n2c1 (racemic) | 49.3
* Clc1ccc2ncc(-c3cccc(NC4CCCNC4)n3)n2c1 (racemic) | 78.1

Ask: Consider the compound shown here: `N#Cc1ccc2ncc(-c3cccc(NC4CCNCC4)n3)n2c1` What is its recorded microsomal CLint at 0.5 µM?
Result: 39.9
